TESTED ON: T1, full-length human GIPR (GenBank NM_000164) with an N-terminal FLAG tag on HEK-293T cells (human), P48546
T1 chain: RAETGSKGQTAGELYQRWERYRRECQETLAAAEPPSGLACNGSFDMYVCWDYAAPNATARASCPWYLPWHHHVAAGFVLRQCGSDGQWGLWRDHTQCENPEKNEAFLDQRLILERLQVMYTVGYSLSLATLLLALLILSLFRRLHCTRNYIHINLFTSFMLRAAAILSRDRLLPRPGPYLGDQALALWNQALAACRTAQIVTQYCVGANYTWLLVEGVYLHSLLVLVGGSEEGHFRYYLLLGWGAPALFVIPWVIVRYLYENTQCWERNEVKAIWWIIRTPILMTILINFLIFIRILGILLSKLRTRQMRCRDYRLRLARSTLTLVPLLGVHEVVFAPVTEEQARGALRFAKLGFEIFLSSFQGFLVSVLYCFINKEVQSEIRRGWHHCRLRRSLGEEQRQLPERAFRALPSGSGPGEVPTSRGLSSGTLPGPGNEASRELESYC
TEST NAME: cell-based or functional assay
Numbered stars: 1 amine (or outer) side, 2 acyl side, 3 side chain; on linkers, the order of the positions; unused ones are H or OH. Square brackets hold non-standard residues; d marks the D form. Primed or numbered codes have the meaning given here. Side chains are listed from the residue outwards. Ends that are not written are not given here. * marks the point of attachment. C20 diacid = O=C(O)CCCCCCCCCCCCCCCCCCC(=O)*; C18 diacid = O=C(O)CCCCCCCCCCCCCCCCC(=O)*; C16 diacid = O=C(O)CCCCCCCCCCCCCCC(=O)*; γGlu = O=C(O)[C@H](CCC(=O)[*:2])N[*:1]; Iva = CC[C@](C)(N)C(=O)O; PEG3′ = not defined here; Abu = CC[C@H](N)C(=O)O; Aib = CC(C)(N)C(=O)O

BINDER: Y[Aib]EGTFISDYSIALDR[Aib]HQ[Aib]NFVNW[Iva]LAQRPSK([Abu-γGlu-C18 diacid])GAPPPS (ends and bridges not checked) [Compound No. 539]
GIP EC50(pM): 2.66
//
BINDER: Y[Aib]EGTFISDYSIALDR[Aib]HQ[Aib]NFVNW[Iva]LAQRPK([Abu-γGlu-C18 diacid])SGAPPPS (ends and bridges not checked) [Compound No. 538]
GIP EC50(pM): 1.8
//
BINDER: Y[Aib]EGTFISDYSIALDR[Aib]HQ[Aib]NFVNW[Iva]LAQRPSSGK([γGlu-γGlu-C18 diacid])PPPS (ends and bridges not checked) [Compound No. 551]
GIP EC50(pM): 0.6
//
BINDER: Y[Aib]EGTFISDYSIALDR[Aib]HQ[Aib]NFVNW[Iva]LAQRPSSK([PEG3′-γGlu-C20 diacid])APPPS (ends and bridges not checked) [Compound No. 520]
GIP EC50(pM): 2.68
//
BINDER: Y[Aib]EGTFISDYSIALDR[Aib]HQ[Aib]NFVNW[Iva]LAQRPSSGAK([Gly-Gly-Gly-Gly-Gly-γGlu-C18 diacid])PPS (ends and bridges not checked) [Compound No. 454]
GIP EC50(pM): 1.14
//
BINDER: Y[Aib]EGTFISDYSIALDR[Aib]HQ[Aib]NFVNW[Iva]LAQRPSSGAPPPK([γGlu-γGlu-C18 diacid]) (ends and bridges not checked) [Compound No. 555]
GIP EC50(pM): 0.97
//
BINDER: Y[Aib]EGTFISDYSIALDR[Aib]HQ[Aib]NFVNW[Iva]LAQRPSK([PEG3′-PEG3′-γGlu-C16 diacid])GAPPPS (ends and bridges not checked) [Compound No. 491]
GIP EC50(pM): 0.7
//
BINDER: Y[Aib]EGTFISDYSIALDR[Aib]HQ[Aib]NFVNW[Iva]LAQRKSSGAPPPS (not fully specified (residue 31); ends and bridges not checked) [Compound No. 468]
GIP EC50(pM): 0.44
